Target: Bile acid receptor (Homo sapiens) (UniProt Q96RI1)
Sequence (Q96RI1 whole entry, the tested form may be a part): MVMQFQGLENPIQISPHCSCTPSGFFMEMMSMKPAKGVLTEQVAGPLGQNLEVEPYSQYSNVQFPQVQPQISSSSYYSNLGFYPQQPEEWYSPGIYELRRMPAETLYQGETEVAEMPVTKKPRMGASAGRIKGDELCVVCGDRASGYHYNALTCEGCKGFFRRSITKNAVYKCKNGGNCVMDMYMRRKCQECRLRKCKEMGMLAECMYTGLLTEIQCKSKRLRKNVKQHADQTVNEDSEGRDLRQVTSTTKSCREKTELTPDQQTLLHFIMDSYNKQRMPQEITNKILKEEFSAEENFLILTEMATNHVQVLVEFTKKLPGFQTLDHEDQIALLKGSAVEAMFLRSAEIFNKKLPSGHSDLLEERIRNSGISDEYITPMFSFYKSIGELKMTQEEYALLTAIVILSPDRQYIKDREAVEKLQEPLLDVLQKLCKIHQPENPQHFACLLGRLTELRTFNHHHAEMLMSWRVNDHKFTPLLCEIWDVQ
Assay: Agonist activity at human FXR LBD transfected in african green monkey CV1 cells assessed as maximum efficacy after overnight incubation by luciferase reporter gene assay relative to GW4064
Format: functional, cell-based
Details: CV-1
Recorded Emax determines the group label, using low bin (below 60%), mid bin (60% to below 90%), high bin (90% or more)

Please let me know in which category the item "CC(C)c1onc(-c2c(Cl)cccc2Cl)c1COc1ccc(-c2ccc3[nH]c(C(=O)O)cc3c2)cc1" belongs.
mid bin

Please let me know in which category the item "CC(C)c1onc(-c2c(Cl)cccc2Cl)c1COc1ccc(-c2ccc3nc(C(=O)O)ccc3c2)cc1" belongs.
high bin

Please let me know in which category the item "CC(C)c1onc(-c2c(Cl)cccc2Cl)c1COc1ccc(-c2ccc3cc(C(=O)O)[nH]c3c2)cc1" belongs.
mid bin

Please let me know in which category the item "CC(C)c1onc(-c2c(Cl)cccc2Cl)c1COc1ccc(-c2ccc3c(C(=O)O)csc3c2)cc1" belongs.
mid bin

Please let me know in which category the item "CC(C)c1onc(-c2c(Cl)cccc2Cl)c1COc1ccc(-c2nc3cccc(C(=O)O)c3[nH]2)cc1" belongs.
low bin

Please let me know in which category the item "CC(C)c1onc(-c2c(Cl)cccc2Cl)c1COc1ccc(-c2ccc3sc(C(=O)O)cc3n2)cc1" belongs.
mid bin

Please let me know in which category the item "CC(C)c1onc(-c2c(Cl)cccc2Cl)c1COc1ccc(-c2ccc3c(C(=O)O)cccc3c2)cc1" belongs.
high bin

Please let me know in which category the item "CC(C)c1onc(-c2c(Cl)cccc2Cl)c1COc1ccc(Cn2ccc3ccc(C(=O)O)cc32)cc1" belongs.
low bin

Please let me know in which category the item "CC(C)c1onc(-c2c(Cl)cccc2Cl)c1COc1ccc(-c2ccc3c(C(=O)O)c[nH]c3c2)cc1" belongs.
low bin

Please let me know in which category the item "CC(C)c1onc(-c2c(Cl)cccc2Cl)c1COc1ccc(/C=C/c2cccc(C(=O)O)c2)c(Cl)c1" belongs.
high bin

Please let me know in which category the item CC(C)c1onc(-c2c(Cl)cccc2Cl)c1COc1ccc(-c2ccc3c(c2)CCCC3C(=O)O)cc1 (stereo not given) belongs.
mid bin

Measured values drawn from ChEMBL document CHEMBL1833944 for this set.
